Provenance of the data: patent US5681826A

Quick list: Trehalose per entry.
- System: glucoamylase
- METHOD_DESCRIPTION: Enzymatic hydrolysis by glucoamylase
- Format: biochemical
- ASSAY_CONTEXT: one unit glucoamylase, pH 4.5, 40°C., 6 hours

COMPOUND_SMILES	Trehalose
OC[C@H]1O[C@H](O[C@H]2O[C@H](CO)[C@@H](O[C@H]3O[C@H](CO)[C@@H](O[C@H]4O[C@H](CO)[C@@H](O)[C@H](O)[C@H]4O)[C@H](O)[C@H]3O)[C@H](O)[C@H]2O)[C@H](O)[C@@H](O)[C@@H]1O	48.0%
OC[C@H]1O[C@H](O[C@H]2O[C@H](CO)[C@@H](O[C@H]3O[C@H](CO)[C@@H](O[C@H]4O[C@H](CO)[C@@H](O[C@H]5O[C@H](CO)[C@@H](O[C@H]6O[C@H](CO)[C@@H](O[C@H]7O[C@H](CO)[C@@H](O)[C@H](O)[C@H]7O)[C@H](O)[C@H]6O)[C@H](O)[C@H]5O)[C@H](O)[C@H]4O)[C@H](O)[C@H]3O)[C@H](O)[C@H]2O)[C@H](O)[C@@H](O)[C@@H]1O	27.1%
OC[C@H]1O[C@H](O[C@H]2O[C@H](CO)[C@@H](O[C@H]3O[C@H](CO)[C@@H](O[C@H]4O[C@H](CO)[C@@H](O[C@H]5O[C@H](CO)[C@@H](O[C@H]6O[C@H](CO)[C@@H](O)[C@H](O)[C@H]6O)[C@H](O)[C@H]5O)[C@H](O)[C@H]4O)[C@H](O)[C@H]3O)[C@H](O)[C@H]2O)[C@H](O)[C@@H](O)[C@@H]1O	31.7%
OC[C@H]1O[C@H](O[C@H]2O[C@H](CO)[C@@H](O[C@H]3O[C@H](CO)[C@@H](O)[C@H](O)[C@H]3O)[C@H](O)[C@H]2O)[C@H](O)[C@@H](O)[C@@H]1O	63.8%
OC[C@H]1O[C@H](O[C@H]2O[C@H](CO)[C@@H](O[C@H]3O[C@H](CO)[C@@H](O[C@H]4O[C@H](CO)[C@@H](O[C@H]5O[C@H](CO)[C@@H](O)[C@H](O)[C@H]5O)[C@H](O)[C@H]4O)[C@H](O)[C@H]3O)[C@H](O)[C@H]2O)[C@H](O)[C@@H](O)[C@@H]1O	38.6%

* * *

Quick list: Saccharide composition of hydrolysate by α-amylase: P II per entry.
- System: α-amylase
- METHOD_DESCRIPTION: Hydrolysis by α-amylase derived from pig pancreas
- Assay type: in vitro ADME
- ASSAY_CONTEXT: one unit, pH 6.9, 37°C., 18 hours
REPORTED_ENDPOINT: Saccharide composition of hydrolysate by α-amylase: P II

COMPOUND_SMILES	RESULT_VALUE
OC[C@H]1O[C@H](O[C@H]2O[C@H](CO)[C@@H](O[C@H]3O[C@H](CO)[C@@H](O[C@H]4O[C@H](CO)[C@@H](O)[C@H](O)[C@H]4O)[C@H](O)[C@H]3O)[C@H](O)[C@H]2O)[C@H](O)[C@@H](O)[C@@H]1O	98.8
OC[C@H]1O[C@H](O[C@H]2O[C@H](CO)[C@@H](O[C@H]3O[C@H](CO)[C@@H](O[C@H]4O[C@H](CO)[C@@H](O[C@H]5O[C@H](CO)[C@@H](O)[C@H](O)[C@H]5O)[C@H](O)[C@H]4O)[C@H](O)[C@H]3O)[C@H](O)[C@H]2O)[C@H](O)[C@@H](O)[C@@H]1O	4.8
OC[C@H]1O[C@H](O[C@H]2O[C@H](CO)[C@@H](O[C@H]3O[C@H](CO)[C@@H](O[C@H]4O[C@H](CO)[C@@H](O[C@H]5O[C@H](CO)[C@@H](O[C@H]6O[C@H](CO)[C@@H](O[C@H]7O[C@H](CO)[C@@H](O)[C@H](O)[C@H]7O)[C@H](O)[C@H]6O)[C@H](O)[C@H]5O)[C@H](O)[C@H]4O)[C@H](O)[C@H]3O)[C@H](O)[C@H]2O)[C@H](O)[C@@H](O)[C@@H]1O	44.9

* * *

- METHOD_DESCRIPTION: Hydrolysis by rat intestinal acetone powder
- Assay type: in vitro ADME
- ASSAY_CONTEXT: pH 6.0, 37°C., 18 hours
Quick list: Saccharide composition of hydrolysate by rat intestinal acetone powder: Other saccharides per entry.
REPORTED_ENDPOINT: Saccharide composition of hydrolysate by rat intestinal acetone powder: Other saccharides (%)

COMPOUND_SMILES	RESULT_VALUE
OC[C@H]1O[C@H](O[C@H]2O[C@H](CO)[C@@H](O[C@H]3O[C@H](CO)[C@@H](O[C@H]4O[C@H](CO)[C@@H](O[C@H]5O[C@H](CO)[C@@H](O)[C@H](O)[C@H]5O)[C@H](O)[C@H]4O)[C@H](O)[C@H]3O)[C@H](O)[C@H]2O)[C@H](O)[C@@H](O)[C@@H]1O	0.4
OC[C@H]1O[C@H](O[C@H]2O[C@H](CO)[C@@H](O[C@H]3O[C@H](CO)[C@@H](O[C@H]4O[C@H](CO)[C@@H](O)[C@H](O)[C@H]4O)[C@H](O)[C@H]3O)[C@H](O)[C@H]2O)[C@H](O)[C@@H](O)[C@@H]1O	0.4
OC[C@H]1O[C@H](O[C@H]2O[C@H](CO)[C@@H](O[C@H]3O[C@H](CO)[C@@H](O[C@H]4O[C@H](CO)[C@@H](O[C@H]5O[C@H](CO)[C@@H](O[C@H]6O[C@H](CO)[C@@H](O)[C@H](O)[C@H]6O)[C@H](O)[C@H]5O)[C@H](O)[C@H]4O)[C@H](O)[C@H]3O)[C@H](O)[C@H]2O)[C@H](O)[C@@H](O)[C@@H]1O	0.4
OC[C@H]1O[C@H](O[C@H]2O[C@H](CO)[C@@H](O[C@H]3O[C@H](CO)[C@@H](O)[C@H](O)[C@H]3O)[C@H](O)[C@H]2O)[C@H](O)[C@@H](O)[C@@H]1O	0.4
OC[C@H]1O[C@H](O[C@H]2O[C@H](CO)[C@@H](O[C@H]3O[C@H](CO)[C@@H](O[C@H]4O[C@H](CO)[C@@H](O[C@H]5O[C@H](CO)[C@@H](O[C@H]6O[C@H](CO)[C@@H](O[C@H]7O[C@H](CO)[C@@H](O)[C@H](O)[C@H]7O)[C@H](O)[C@H]6O)[C@H](O)[C@H]5O)[C@H](O)[C@H]4O)[C@H](O)[C@H]3O)[C@H](O)[C@H]2O)[C@H](O)[C@@H](O)[C@@H]1O	0.1

* * *

- EXPERIMENTAL_SYSTEM: trehalose-releasing enzyme (Rhizobium sp. M-11, UniProt Q53238)
- Construct: M-11 culture
- Sequence (Q53238 whole entry): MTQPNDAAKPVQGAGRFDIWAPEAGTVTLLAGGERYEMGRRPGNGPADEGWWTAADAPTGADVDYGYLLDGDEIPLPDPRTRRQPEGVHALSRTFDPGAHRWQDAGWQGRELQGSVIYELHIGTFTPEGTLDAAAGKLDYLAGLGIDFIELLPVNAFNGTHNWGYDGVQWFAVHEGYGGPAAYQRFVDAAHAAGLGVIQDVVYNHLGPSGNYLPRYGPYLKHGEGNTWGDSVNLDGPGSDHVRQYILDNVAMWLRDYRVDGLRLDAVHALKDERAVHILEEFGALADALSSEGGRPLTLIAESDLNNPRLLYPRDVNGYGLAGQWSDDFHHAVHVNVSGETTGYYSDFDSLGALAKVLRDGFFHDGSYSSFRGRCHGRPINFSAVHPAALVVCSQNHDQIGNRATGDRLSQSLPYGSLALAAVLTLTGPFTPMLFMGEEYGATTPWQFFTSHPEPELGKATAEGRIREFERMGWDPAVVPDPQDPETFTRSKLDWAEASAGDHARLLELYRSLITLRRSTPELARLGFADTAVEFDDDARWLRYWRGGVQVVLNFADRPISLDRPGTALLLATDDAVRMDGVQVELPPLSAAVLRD
- METHOD_DESCRIPTION: Action of trehalose-releasing enzyme on α-glycosyltrehalose and maltooligosaccharides (Table 13)
- Format: biochemical
- ASSAY_CONTEXT: 20% substrate, 2 units/g, 40°C., pH 7.0, 48 hours; label = substrate

COMPOUND_SMILES	Percentage of trehalose released, %
OC[C@H]1O[C@H](O[C@H]2O[C@H](CO)[C@@H](O[C@H]3O[C@H](CO)[C@@H](O)[C@H](O)[C@H]3O)[C@H](O)[C@H]2O)[C@H](O)[C@@H](O)[C@@H]1O	17.5
OC[C@H]1O[C@H](O[C@H]2O[C@H](CO)[C@@H](O[C@H]3O[C@H](CO)[C@@H](O[C@H]4O[C@H](CO)[C@@H](O[C@H]5O[C@H](CO)[C@@H](O[C@H]6O[C@H](CO)[C@@H](O)[C@H](O)[C@H]6O)[C@H](O)[C@H]5O)[C@H](O)[C@H]4O)[C@H](O)[C@H]3O)[C@H](O)[C@H]2O)[C@H](O)[C@@H](O)[C@@H]1O	34.2
OC[C@H]1O[C@H](O[C@H]2O[C@H](CO)[C@@H](O[C@H]3O[C@H](CO)[C@@H](O[C@H]4O[C@H](CO)[C@@H](O)[C@H](O)[C@H]4O)[C@H](O)[C@H]3O)[C@H](O)[C@H]2O)[C@H](O)[C@@H](O)[C@@H]1O	44.3
OC[C@H]1O[C@H](O[C@H]2O[C@H](CO)[C@@H](O[C@H]3O[C@H](CO)[C@@H](O[C@H]4O[C@H](CO)[C@@H](O[C@H]5O[C@H](CO)[C@@H](O)[C@H](O)[C@H]5O)[C@H](O)[C@H]4O)[C@H](O)[C@H]3O)[C@H](O)[C@H]2O)[C@H](O)[C@@H](O)[C@@H]1O	39.5
OC[C@H]1O[C@H](O[C@H]2O[C@H](CO)[C@@H](O[C@H]3O[C@H](CO)[C@@H](O[C@H]4O[C@H](CO)[C@@H](O[C@H]5O[C@H](CO)[C@@H](O[C@H]6O[C@H](CO)[C@@H](O[C@H]7O[C@H](CO)[C@@H](O)[C@H](O)[C@H]7O)[C@H](O)[C@H]6O)[C@H](O)[C@H]5O)[C@H](O)[C@H]4O)[C@H](O)[C@H]3O)[C@H](O)[C@H]2O)[C@H](O)[C@@H](O)[C@@H]1O	29.1
